Test: Inhibition of bacterial LpxA
Set-up: species or system Bacteria
pIC50: −log10 of the molar value.
Quantity name: pIC50

Structure | pIC50
Cc1ccnc(-c2cc(C(=O)N3CCOC[C@H]3Cc3ccccc3)[nH]n2)c1 | 5.32

a: COc1ccc(C(=O)CN2C(=O)NC(c3ccccc3)(c3ccccc3)C2=O)cc1
b: COc1cccc(Cl)c1C[C@@H]1COCCN1C(=O)c1cc(-c2cc(C)c(N)cn2)n[nH]1
Query :: Returns the identifier with the smallest measured pIC50 among a and b . Choose, then provide that item's label.
Result :: a

====

Assay: Binding affinity to bacterial LpxA assessed as dissociation constant
Set-up: species or system Bacteria
pKd: −log10 of the molar value. Residues, ends and D or L forms follow the SMILES beside them.
Quantity name: pKd

Compound | Quantity name | Assay result
O=C(COc1ccccc1)NNC1=CS(=O)(=O)c2ccccc21 | pKd | 4.78
CC[C@H](C)[C@H](NC(=O)[C@H](CC(=O)O)NC(=O)[C@H](Cc1c[nH]c2ccccc12)NC(=O)[C@H](CCCCN)NC(=O)[C@@H]1CCCN1C(=O)[C@H](CC(C)C)NC(=O)[C@H](CCSC)NC(=O)[C@H](Cc1ccc(O)cc1)NC(=O)[C@H](CC(C)C)NC(=O)[C@H](CC(N)=O)NC(=O)[C@@H](N)[C@@H](C)O)C(=O)N1CCC[C@H]1C(N)=O (H-TNLYMLPKWDIP-NH2) | pKd | 4.70

a: Cc1ccnc(-c2cc(C(=O)N3CCOC[C@H]3Cc3ccccc3)[nH]n2)c1
b: C/C(=C\C(=O)Nc1nnn[nH]1)c1cccc(C(F)(F)F)c1
c: NC(Cc1c[nH]c2ccc([N+](=O)[O-])cc12)C(=O)O (stereo unspecified)
d: COc1ccc(C(=O)CN2C(=O)NC(c3ccccc3)(c3ccccc3)C2=O)cc1
Query :: # rank_down: sort by pKd, max first Kindly provide the labels arranged according to the requested ordering.
Result :: d, b, c, a

====

Assay: Binding affinity to bacterial LpxA assessed as dissociation constant by SPR analysis
Parameters: species or system Bacteria
Quantity name: Kd (µM)

A: NC(=O)C1CN(C(=O)CSCCC(=O)O)c2ccccc2O1 (configuration not stated)
B: O=C(O)CCC(=O)c1cccc2ccccc12
Query :: Returns the identifier with the smallest measured Kd among A and B . Choose, then provide that item's label.
Result :: B

====

Experiment: Inhibition of Escherichia coli BL21(DE3) LpxA
Residues, ends and D or L forms follow the SMILES beside them.
Below, each entry is listed with its recorded IC50.

Compound | IC50
CC[C@H](C)[C@H](NC(=O)[C@@H]1CCCN1C(=O)[C@H](CCC(=O)O)NC(=O)[C@H](CC(C)C)NC(=O)[C@H](CCSC)NC(=O)[C@H](Cc1c[nH]c2ccccc12)NC(=O)CN)C(=O)N[C@@H](C)C(=O)O (H-GWMLEPIA-OH) | > 100 µM
CSCC[C@H](NC(=O)[C@@H](N)Cc1c[nH]c2ccccc12)C(=O)N[C@@H](CC(C)C)C(=O)N[C@@H](CCC(=O)O)C(=O)O (H-WMLE-OH) | > 100 µM

The value of IC50 measured for the compound CC[C@H](C)[C@H](NC(=O)[C@@H]1CCCN1C(=O)[C@H](CCC(=O)O)NC(=O)[C@H](CC(C)C)NC(=O)[C@H](CCSC)NC(=O)[C@@H](N)Cc1c[nH]c2ccccc12)C(=O)O (H-WMLEPI-OH) turned out to be > 100 µM
